Exercise: for every item that follows, state its recorded CC50 at 7 days.
# ASSAY PROCEDURE: In vitro cytotoxicity assay (MTT cell viability) in HepG2 cells
# Assay type: cell-based, human
# CONDITION SUMMARY: human
# Protocol: To evaluate antiviral selectivity, the cytotoxic activity of each compound was determined using a standard cell viability assay performed on the parental HepG2 cell line. Cell viability was determined by measuring the conversion of 3-(4,5-dimethylthiazol-2-yl)-2,5-diphenyltetrazolium bromide (MTT) to the insoluble formazan salt crystal that occurs in live cells. […] All absorbance values were converted to a percentage of the signal obtained from the vehicle treated controls. […]

The following compounds have reported results that may help.
| COMPOUND | RESULT |
| --- | --- |
| Cc1noc([C@@H](C)NC(=O)C(=O)c2c(Cl)c(C(=O)Nc3ccc(F)c(C)c3)c3n2CCCC3)n1 [Example 495] | 5 to 30 µM |
| Cc1c(C(=O)Nc2cccc(C(F)F)c2)c(C)n(C)c1C(=O)C(=O)N[C@]1(C)CC[C@@H](O)CC1 [Example 700] | > 30 µM |
| Cc1cc(NC(=O)c2c(C)c(C(=O)C(=O)NC3CCN(c4cccs4)CC3)n(C)c2C)ccc1F [Example 655] | > 30 µM |
| Cc1cc(NC(=O)c2c(C)c(C(=O)C(=O)NCCN3C(=O)CSC3=O)n(C)c2C)ccc1F [Example 649] | > 30 µM |

Give measured CC50 at 7 days for every item shown.
1. Cc1c(C(=O)Nc2ccc(F)c(F)c2)c(Cl)c(C(=O)C(=O)NC2(C)CC(F)(F)C2)n1C [Example 375]
2. CC(C)(C)NC(=O)C(=O)c1cc(C(=O)Nc2ccc(F)c(C(F)F)c2)c2n1CCCC2 [Example 400]
3. Cc1c(C(=O)Nc2ccnc(F)c2)c(C)n(C)c1C(=O)C(=O)N[C@@H](C)C(F)(F)F [Example 274]
4. Cc1cc(NC(=O)c2c(C)c(C(=O)C(=O)Nc3ccc(N4CCOCC4)nc3)n(C)c2C)ccc1F [Example 266]
5. CC[C@H](C)NC(=O)C(=O)c1c(C)c(C(=O)Nc2cnc(F)c(C)c2)c2n1CCCC2 [Example 475]
6. Cc1cc(NC(=O)c2c(C)c(C(=O)C(=O)NCCn3ccnc3)n(C)c2C)ccc1F [Example 346]
7. Cc1cc(NC(=O)c2c(C)c(C(=O)C(=O)N[C@H]3C[C@H](O)C34CCOCC4)n(C)c2C)ccc1F [Example 620]
8. Cc1cc(NC(=O)c2c(C)c(C(=O)C(=O)N3[C@@H]4CC[C@H]3C[C@H](O)C4)n(C)c2C)ccc1F [Example 48]

["> 30 µM", "> 30 µM", "> 30 µM", "> 30 µM", "> 30 µM", "> 30 µM", "> 30 µM", "> 30 µM"]

Please give CC50 at 7 days, item by item, for the list that follows.
1. CCNC(=O)N1CCC(C)(NC(=O)C(=O)c2c(C)c(C(=O)Nc3ccc(F)c(C)c3)c(C)n2C)CC1 [Example 614]
2. Cc1cc(NC(=O)c2c(C)c(C(=O)C(=O)N[C@H](C(N)=O)[C@@H](C)O)n(C)c2C)ccc1F [Example 42]

1: > 30 µM; 2: > 30 µM

====

Would you kindly list CC50 at 7 days for each of these compounds?
# ASSAY PROCEDURE: In vitro cytotoxicity assay (MTT cell viability) in HepG2 cells
# Assay type: cell-based, human
# CONDITION SUMMARY: human

| COMPOUND | RESULT |
| --- | --- |
| Cc1cc(NC(=O)c2c(C)c(C(=O)C(=O)N[C@@H]3CC[C@H](O)[C@@H]3O)n(C)c2C)ccc1F | > 30 µM |
| Cc1cc(NC(=O)c2c(C)c(C(=O)C(=O)N[C@H]3CC[C@@H](C(=O)O)CC3)n(C)c2C)ccc1F | > 30 µM |
| O=C(NC1(CO)CCC1)C(=O)c1c(Cl)c(C(=O)Nc2ccc(F)c(F)c2)c2n1CCC2 | > 30 µM |
| Cc1c(C(=O)Nc2ccc(F)cc2)c(C)n(C)c1C(=O)C(=O)N[C@H]1CC[C@@H](O)CC1 | > 30 µM |
| Cc1cc(NC(=O)c2c(C)c(C(=O)C(=O)NC3CCCCC3)n(C)c2C)ccc1F | 5 to 30 µM |
| Cc1cc(NC(=O)c2c(C)c(C(=O)C(=O)Nc3ccc4c(c3)COB4O)n(C)c2C)ccc1F | 5 to 30 µM |

Would you be so kind as to report CC50 at 7 days for each listed record?
1. Cc1cc(NC(=O)c2c(C)c(C(=O)C(=O)N[C@H]3CC[C@@H](O)CC3)n(C)c2C)ccc1F
2. Cc1cc(Cl)cc(NC(=O)c2c(C)c(C(=O)C(=O)N[C@]3(C)CC[C@@H](O)CC3)n(C)c2C)c1
3. Cc1cc(NC(=O)c2c(Cl)c(C(=O)C(=O)NC(C)(C)C)n(C)c2C)ccc1F
4. Cc1nc(C(C)(NC(=O)C(=O)c2c(C)c(C(=O)Nc3ccc(F)c(C)c3)c(C)n2C)C2CC2)no1 (stereo not drawn)

1. > 30 µM
2. 5 to 30 µM
3. > 30 µM
4. > 30 µM

Give CC50 at 7 days for each of the items listed below.
1. COc1c(C(=O)Nc2ccc(F)c(F)c2)c(C)n(C)c1C(=O)C(=O)NCC(C)(C)O
2. Cc1cc(NC(=O)c2c(C)c(C(=O)C(=O)N[C@@H](C)CCO)n(C)c2C)ccc1F
3. Cc1c(C(=O)Nc2ccnc(F)c2)c(C)n(C)c1C(=O)C(=O)NC12CC3CC(CC(O)(C3)C1)C2
4. CC(=O)N[C@H]1C[C@H](NC(=O)C(=O)c2c(C)c(C(=O)Nc3ccc(F)c(C)c3)c(C)n2C)C1
5. CC(C)(CO)NC(=O)C(=O)c1c(Cl)c(C(=O)Nc2ccnc(F)c2)c2n1CCCC2

> 30 µM
> 30 µM
> 30 µM
> 30 µM
> 30 µM

Need CC50 at 7 days for each of these compounds.
1. O=C(N[C@H]1CCC[C@H]1O)C(=O)c1c(Cl)c(C(=O)Nc2ccc(F)c(F)c2)c2n1CCCC2
2. Cc1noc([C@H](NC(=O)C(=O)c2c(C)c(C(=O)Nc3ccc(F)c(C)c3)c(C)n2C)C(C)C)n1

5 to 30 µM
> 30 µM

// batch mode: one CC50 at 7 days value per listed entry
1. Cc1cc(NC(=O)c2c(C)c(C(=O)C(=O)NC3CCS(=O)(=O)CC3)n(C)c2C)ccc1F
2. Cc1cc(NC(=O)c2c(C)c(C(=O)C(=O)NC3(C)CCN(c4nccs4)CC3)n(C)c2C)ccc1F
3. Cc1cc(NC(=O)c2c(C)c(C(=O)C(=O)N[C@H]3CCC[C@H]3O)n3c2CCCC3)ccc1F
4. Cc1cc(NC(=O)c2cc(C(=O)C(=O)N[C@@H](CO)[C@H](C)O)n3c2CCCC3)ccc1F
5. Cc1noc([C@@H](C)NC(=O)C(=O)c2c(Cl)c(C(=O)Nc3ccc(F)c(Cl)c3)c3n2CCC3)n1
6. CC(=O)N1CCC(NC(=O)C(=O)c2c(C)c(C(=O)Nc3ccc(F)c(C)c3)c(C)n2C)CC1
7. Cc1cc(NC(=O)c2c(C)c(C(=O)C(=O)NC3(C)CCN(C(=O)c4cnn5cccnc45)CC3)n(C)c2C)ccc1F

5 to 30 µM
5 to 30 µM
5 to 30 µM
> 30 µM
5 to 30 µM
> 30 µM
> 30 µM

====

# ASSAY PROCEDURE: In vitro cytotoxicity assay (MTT cell viability) in HepG2 cells
# Type: cell-based, human
# CONDITION SUMMARY: human
For each record, write down the corresponding CC50 at 7 days.

| SMILES STR | RESULT |
| --- | --- |
| Cc1cc(NC(=O)C(=O)c2c(C)c(C(=O)Nc3ccc(F)c(C)c3)c(C)n2C)on1 | 5 to 30 µM |

Give measured CC50 at 7 days for every item shown.
1. Cc1c(C(=O)Nc2cccc(C(F)F)c2)c(C)n(C)c1C(=O)C(=O)N[C@H]1CC[C@@H](O)CC1
2. CC(C)(CO)CNC(=O)C(=O)c1c(Cl)c(C(=O)Nc2ccc(F)c(F)c2)c2n1CCC2

1. > 30 µM
2. > 30 µM

====

# ASSAY PROCEDURE: In vitro cytotoxicity assay (MTT cell viability) in HepG2 cells
# Assay type: cell-based, human
# CONDITION SUMMARY: human
Task for the reader: assign each of the following compounds its reported CC50 at 7 days.

| SMILES STR | CC50 at 7 days |
| --- | --- |
| Cc1cc(NC(=O)c2c(C)c(C(=O)C(=O)N[C@H](C(=O)OC(C)(C)C)C(C)(C)C)n(C)c2C)ccc1F | > 30 µM |
| Cc1cc(NC(=O)c2c(C)c(C(=O)C(=O)NCC(C)(C)O)n3c2CCCC3)cnc1F | > 30 µM |
| Cc1cc(NC(=O)c2c(C)c(C(=O)C(=O)NC3(C)CCN(c4ccncn4)CC3)n(C)c2C)ccc1F | 5 to 30 µM |

// each listed compound needs a value for CC50 at 7 days
1. Cc1c(C(=O)Nc2ccnc(Cl)c2)c(C)n(C)c1C(=O)C(=O)NC1(C)CCOCC1
2. Cc1cc(NC(=O)c2c(C)c(C(=O)C(=O)N[C@H](C(=O)O)C(C)(C)C)n(C)c2C)ccc1F
3. Cc1c(C(=O)Nc2cc(F)c(F)c(F)c2)c(Cl)c(C(=O)C(=O)NCC(C)(C)O)n1C
4. COCC(C)(C)NC(=O)C(=O)c1c(C)c(C(=O)Nc2ccc(F)c(C)c2)c(C)n1CCF

> 30 µM
> 30 µM
0.5 to 4.99 µM
> 30 µM

These data points were gathered from patent US20190375708A1.
